- assaySummary: protease stability score; higher = more stable; yeast display proteolysis, trypsin and chymotrypsin;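 further: relative to predicted unfolded state with 0 unfolded-like and 1 meaning tenfold more protease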
Record form. Attribute: protease stability score. Fill in for each entry.
# print the numeric value only

Which protease stability score value belongs to DERKTISHMIEEIWHRIIRTGDEEAFIKYFDPHARIHVDGKEIHGREKVLEFLIEIFRHLRVEDYTVHSYNTQGDKIHIDTRMDGEVDGRREVNQTRIIATKINGQWILTEVHLS ?
0.36

Fill blank: measured protease stability score of the sequence DELTEVADYLLEHFIRNLITGNEERVRHLADPHVRVIEVYGDKVEMRHGRDSMLKWMHDWRHHIRLKHYQIEHIEVQGEKSVVHGRLRGNIDGRDIDTRTHIEVVHIDGRFTSMRYEVR is ____.
0.555

Look up protease stability score for this sequence: EEERETDHRLTEKLRRIIRTGDEEEWSKLVDPNTRVIYGDKQDHGWEAWVRILKDLGAKHIDIEHVDIVNGRVEIHSHLTIGDKHVIIHHRIVHINGKLTEIYIEIHHK
0.694

Please report the recorded protease stability score for SEEEHFAKELHKLFLEWWKTGDEEHLLEFADPDARSEIGDKRHHGREEVSRELLEFRRRIPGVQIRHQHVSVHLIDGKLTTHLHFRVNFNGVEFHETIIYYNDKYNGKWHLKSIIVTIE .
0.954

I would be grateful if you could share the reported protease stability score for DEKEEHSKELVRLILRLILTGDEEILEDLMDPNVRANIDGREVHGWHEFVRILEKFLKEWRIHTTSLKRIRIIGDKAEVDLHEVGIVNGKKLEQDFHIHIEFVNGRLKEVHIEIR .
1.69

# get_value(readout='protease stability score', item= SEEEELARHAFELWTRSMLTGDEHTMEKLFDPNTRLDINGRDHVGRELFLEFIHRLLREWRFRDVKLEDVKSVNGVLFLKVRLDVEFDGRRYSLTVELIVTKINGKWHMTEIKMH )
0.353

Param item = DHEEEIALEVAEKILKLWLTGDEEIMMELFDPNTRVEINGKKVHGRENVMHILHHEWREIRLKDLRIKRHESVGNKVHLDGRVNGQINGRKHSIHVRIDIEVVDGRITNISIEHS ; retrieve measured protease stability score.
1.44

Can you share its protease stability score? I mean this sequence: NEDEKLAEDAIQEYRHSVKTGDENFLKHLADPDVRMDYNGREYHGREEWEKFLRNILRHLRPKDFRIKHFDYYGDYMHFEGLHVGQINGKETHLHTEIIFLKINGRWHLRSIRIE
0.401

Any idea what its protease stability score is? The sequence is DERDEMTDHALQRVHEMLLTGDERLLSELFDPNARSQIGDKHVHGRDEVAKTFTEQLEKLGVDHVHFRSVDIQGEKLIIHMHFRVGDKHFQVIIIIVKVNGRWYWTNMHVILH
1.1

Name the reported protease stability score value associated with the sequence DEDKEIAKKAIEDLLRAWYTGDEEFLKNLVDPNVRSNFDGVDYHGRDEVEKFWHDHLRDLGADHVEFSLHELRIYGDKIILHTKIKFNVNGREIRRETEVISRKIDGRWLIKEIHFR
1.42

Field request: protease stability score | item: SREEEIAHDVFREWIESFRTGDEDHRTEMMDPNARVFVNGVEFVGRDEIVRFFRHLRFDNSRHEIKSVRVVDGVAHIDSHLELHGTVNGQRDRVSYKLNVHTSKIDGKWVITEVKVK
2.03

# input sequence: TEHDEDLDRWYDVLKHVLHTGDEEAKAKMVDPHVREDVNGQELHGRDDVRRLDRELGVNHFVLRVERLNIQGNKITMRGTLELTVGDKTERRHVIIHMIKIDGKWFTHHEQIR ; wanted: its protease stability score
1.04

Field request: protease stability score | item: EELERDMDHWIELVIKLRKTGDWRQLAEMVDPNVRVDVNGVQIHGRESIEELLKRLGIDNVEVSLRDKDRQGEKMIVDMELHYNGKRHETKYIALKINGKWIFETITIR
1.38

Param item = SEEDELNHRISHLLTRMRRTGDEDTWHRLADPNMRLEINGVISHGREEALRILSEVDDILGIDRFSVHLDRYTWDGNYIHNDMTFEINGRDLRVHVDSLVINGRMHHERVRVE ; retrieve measured protease stability score.
-0.516

Dear colleague, I am looking for the recorded protease stability score of the following sequence: DEDKEHIDRSLEELRRSWKTGNEEDVLRLADPHVKMIYNGRHHIGRENFEEALKILLERVDHWEDFRITDRHRQGDKVELDVESEGLVNGVTKRTEMIFIILKIDGRWLLHSLEIR
0.724

Give its protease stability score value. Item: EEEERVAVEFFRTLQESIRTGDEKTVKELADPNTRLDVGDKHFHGMEEIRKYWLRFDHFERHTLREEDFDVVNGVMSVHGRLEVHGRYNGQRVHTHYHMVIFVLKVNGRWKITEIKLH
1

Entry under review: HEYEEWSEIAMRLWILAERTGDERHIAHLLDPHVRYVFNGVEVIGMELITELVKRRWEQWRVHVEIEDRKFQGNFSKIEGHLRLHVGDKTEERRVEYRMDIVDGRIREISVIIE . Reported protease stability score?
1.37

Look up protease stability score for this sequence: DEEHEVLRRMVERIREMEKTGDWERYATMADPNTRVDVNGVELHGMENVAFWFWLHLYRHGIEIKDIRVRDIKVQGEKYQEDGELYGHINGQTTILEVHLEITFVNGRIHSEKISIK
1.25

Bench note: what protease stability score did HEDEHELRHAVELFIWLIHTGDWHTELRLADPDVRHEVNGVENHGRELMLEDLQRIKNIRFHVRRVEIRVYGDKADLHIHGRKIVDGRHKELEIHVHIRKVNGKWLLHEVEVNIR show?
1.59

Please report the recorded protease stability score for DREELLMLFLKSWLTGDEHILKELLDPHVRMDVDGVEQHGRDVLLHLLHHLSRYMGVDHHRIERFEVQGDKIFINLRIHWNGVESELEIILFVIDGKIKEVEIRSRDEDHKRMVKESWR .
1.19

Which value of protease stability score has been reported for SEEEQSARKVIEDLIRDLVTGDEKSLRRLMDPHVRFDIGDKELIGREEVLEFWRHIRIHDIKLEDVRLIDGRATVEGKLNGEINGVHHRLDEHIFIYKVDGRWVVHEIRII in the records?
1.53

Which protease stability score is reported for this sequence? GELEKLATTIVRLWVRHWYTGDEESSMRLMDPNARIIINGKEMHGRELYVHFLRRVLEHIRPESVDIEEVKIQGDYAHIDITEHRRIGDKEVTFRTEVSIIVINGKVTEVHMEIR
1.7
